# Assay Remarks: small-molecule microarray binders of probe aDKK1, primary screen, biochemical, biotinylated probe, 635/667 nm fluorescence (AID 1099);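 also: score merges 667nm spot fluorescence with signal to noise across triplicate slides; reference of the scale not given here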
# Applied Conditions: higher = more signal
Okay, here is how we bin by composite z-score: low class: < -0.06; middle class: ≥ -0.06 and < 0.06; high class: ≥ 0.06

Examples with answers:
>>> class_name("CN1C(=O)C2C=CC(C(O)c3ccc(F)cc3)N(NC(=O)OC(C)(C)C)C2C1=O (centres undefined)")
"low class"
>>> class_name("C[C@]1(C(=O)NCCN2CCOCC2)c2ccccc2C(=O)N(Cc2cc(F)cc(C(F)(F)F)c2)[C@H]1c1ccc(CO)cc1")
"middle class"
>>> class_name("Cc1ccc(C(C)CC(O)C2C=CC3C(=O)N(c4ccccc4)C(=O)C3N2Nc2ccc(C#N)cc2)o1 (centres undefined)")
"high class"
>>> class_name("COc1ccc(C(O)C2C=CC3C(=O)N(c4ccccc4)C(=O)C3N2Nc2ccccc2F)cc1 (centres undefined)")
"high class"
>>> class_name("CCCNC(=O)[C@@]1(C)c2ccccc2C(=O)N(Cc2ccccc2)[C@H]1c1ccc(CO)cc1")
"high class"

Req: Quick check: band for CC(C)CCC[C@@H](C)[C@H]1CC[C@@]2(C)C3=C(CC[C@]12C)[C@@]1(C)CC[C@H](OC(=O)c2ccccc2)C(C)(C)C1CC3 (some centres undefined)
Resp: low class

Req: Which band does `C=C[C@@H](OC)[C@H](OC(=O)Nc1ccc(SC)cc1)c1ccc(OCCO)cc1` fall in?
Resp: high class

Req: Categorize the following entry: `COc1ccc([Si](C)(C)[C@@H]2[C@@H](CCn3cc([C@H](O)c4ccccc4)nn3)O[C@]3(C(=O)N(Cc4cccc(N5C(=O)c6cccc7cccc5c67)c4)c4ccccc43)[C@H]2C)cc1`
Resp: middle class

Req: Please indicate the class for `C=C(COC)/C(=C/C[C@@H](OC(C)=O)c1ccc(CO)o1)c1cc(C(=O)OC)ccc1OC` based on its composite z-score.
Resp: low class

---

# Assay Remarks: small-molecule microarray binders of probe aDKK1, primary screen, biochemical, biotinylated probe, 635/667 nm fluorescence (AID 1099);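 also: score merges 667nm spot fluorescence with signal to noise across triplicate slides; reference of the scale not given here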
# Applied Conditions: higher = more signal
Property: composite z-score
Enter the number alone.

>>> result("COCCCNC(=O)[C@@H]1c2ccccc2C(=O)N(C2Cc3ccccc3C2)[C@H]1c1ccc(CO)cc1")
0.299
>>> result("COC(=O)[C@@]1(Cc2ccc(OC)cc2)[C@H]2c3cc(C(=O)N4CCCC4)n(Cc4ccc(OC(F)(F)F)cc4)c3C[C@H]2CN1C(=O)c1ccccc1")
1.15
>>> result("CCN(CC)c1ccc(N2CC=CC34O[C@@H]5/C=C\\CCC(C)OC(=O)C5[C@H]3C(=O)N(C(C)CO)[C@@H]4C2=O)cc1 (stereo not given in full)")
-0.47
>>> result("Cc1ccc(S[C@]2(C(=O)NCC(C)C)CC(=O)N(C3Cc4ccccc4C3)[C@@H]2c2ccc(CO)cc2I)cc1")
-0.126

Moving on to another compound below.
Req: # composite z-score lookup, item `COCCCNC(=O)[C@@]1(c2ccc([N+](=O)[O-])cc2)CC(=O)N(CC23CC4CC(CC(C4)C2)C3)[C@@H]1c1ccc(CO)cc1I`
Resp: 0.541

---

Here, each record is paired with measured z-score data.
# Assay Remarks: fission yeast growth modulation, primary screen, strain 972, OD600, 24 h, no modulator (AID 1090);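 also: basal condition with compound alone and no growth modifier present; test concentration not given here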
# Applied Conditions: S. pombe 972 growth, higher = more signal, called active from +8 up or from −8 down
Could you keep your reply to the number by itself?

// below: answered compounds
>>> result("COCCCNC(=O)[C@@]1(c2ccc([N+](=O)[O-])cc2)CC(=O)N(CC23CC4CC(CC(C4)C2)C3)[C@@H]1c1ccc(CO)cc1I")
1.08
>>> result("[N-]=[N+]=NCc1ccccc1C[C@]1(C(=O)N2CCOCC2)COC(c2ccc(OCCCO)cc2)=N1")
-5.38
>>> result("COC(=O)C1=CC(CCCO)=CC(c2ccc(CN3CCCC3)cc2)N(Cc2cc3c(cc2Br)OCO3)C=C1C(=O)OC (centres undefined)")
-1.23

Now consider a different compound.
Req: Consider the compound shown here: `COc1cccc(/C=C(\C#N)C(=O)Nc2c(C)n(C)n(-c3ccccc3)c2=O)c1` What is its recorded z-score?
Resp: -0.958
